ASSAYED_TARGET: Cytochrome P450 2D6 (Homo sapiens, UniProt P10635); note: in other assays of this panel Not Active means under 50% inhibition at 10 µM
Sequence (P10635 whole entry): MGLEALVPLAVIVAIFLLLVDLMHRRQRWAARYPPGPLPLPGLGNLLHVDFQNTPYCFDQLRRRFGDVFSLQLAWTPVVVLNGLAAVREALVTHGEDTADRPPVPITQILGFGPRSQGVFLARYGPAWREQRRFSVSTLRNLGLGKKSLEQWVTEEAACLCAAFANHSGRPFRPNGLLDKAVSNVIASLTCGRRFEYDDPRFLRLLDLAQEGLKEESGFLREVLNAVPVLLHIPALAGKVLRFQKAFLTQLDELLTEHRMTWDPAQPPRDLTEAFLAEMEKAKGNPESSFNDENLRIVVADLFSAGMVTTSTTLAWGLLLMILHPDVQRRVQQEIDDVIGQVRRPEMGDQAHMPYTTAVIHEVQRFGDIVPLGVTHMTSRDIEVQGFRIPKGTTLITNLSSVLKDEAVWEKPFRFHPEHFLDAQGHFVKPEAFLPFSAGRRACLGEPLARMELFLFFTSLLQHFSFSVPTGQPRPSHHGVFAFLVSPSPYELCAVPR
MEASUREMENT_PARAMETERS: bti-tn-5b1-4

[
  {
    "MOL": "CO[C@@]1(NC(=O)CSCC#N)C(=O)N2C(C(=O)O)=C(CSc3nnnn3C)CS[C@@H]21",
    "ASSAYED_TARGET": "Cytochrome P450 2D6 (Homo sapiens, UniProt P10635)",
    "Ki": "Not Active"
  },
  {
    "MOL": "CC[C@H]1OC(=O)[C@H](C)[C@@H](O[C@H]2C[C@@](C)(OC)[C@@H](O)[C@H](C)O2)[C@H](C)[C@@H](O[C@@H]2O[C@H](C)C[C@H](N(C)C)[C@H]2O)[C@](C)(O)C[C@@H](C)CN(C)[C@H](C)[C@@H](O)[C@]1(C)O",
    "ASSAYED_TARGET": "Cytochrome P450 2D6 (Homo sapiens, UniProt P10635)",
    "Ki": "Not Active"
  },
  {
    "MOL": "NC[C@H]1O[C@H](O[C@H]2[C@H](O)[C@@H](O[C@H]3O[C@H](CO)[C@@H](O)[C@H](N)[C@H]3O)[C@H](N)C[C@@H]2N)[C@H](N)C[C@@H]1O",
    "ASSAYED_TARGET": "Cytochrome P450 2D6 (Homo sapiens, UniProt P10635)",
    "Ki": "Not Active"
  }
]

====

ASSAYED_TARGET: Glucocorticoid receptor (Homo sapiens, UniProt P04150); note: in other assays of this panel Not Active means under 50% inhibition at 10 µM
Sequence (P04150 whole entry): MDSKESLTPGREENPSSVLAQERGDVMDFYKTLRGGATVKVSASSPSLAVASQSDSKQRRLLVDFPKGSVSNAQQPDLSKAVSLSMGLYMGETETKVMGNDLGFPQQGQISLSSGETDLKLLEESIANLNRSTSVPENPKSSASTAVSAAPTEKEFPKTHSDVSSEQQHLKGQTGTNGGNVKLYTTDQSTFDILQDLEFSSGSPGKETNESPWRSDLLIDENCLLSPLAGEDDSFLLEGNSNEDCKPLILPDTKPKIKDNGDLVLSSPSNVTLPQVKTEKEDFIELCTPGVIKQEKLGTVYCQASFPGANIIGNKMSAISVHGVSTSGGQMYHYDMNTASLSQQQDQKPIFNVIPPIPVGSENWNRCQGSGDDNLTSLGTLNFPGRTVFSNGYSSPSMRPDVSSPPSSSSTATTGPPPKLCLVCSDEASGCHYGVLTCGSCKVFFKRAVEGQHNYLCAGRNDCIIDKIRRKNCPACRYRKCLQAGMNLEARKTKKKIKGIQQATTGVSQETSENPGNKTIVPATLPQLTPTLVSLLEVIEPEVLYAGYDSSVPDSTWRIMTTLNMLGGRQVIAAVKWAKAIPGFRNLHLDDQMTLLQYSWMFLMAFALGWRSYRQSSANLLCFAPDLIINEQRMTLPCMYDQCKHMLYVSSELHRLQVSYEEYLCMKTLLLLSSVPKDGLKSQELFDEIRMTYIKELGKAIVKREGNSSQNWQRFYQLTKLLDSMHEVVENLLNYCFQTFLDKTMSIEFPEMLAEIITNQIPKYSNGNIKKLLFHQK
MEASUREMENT_PARAMETERS: hela s3

[
  {
    "COMPOUND": "CCCCCC[C@H]1C(=O)O[C@H](C)[C@H](NC(=O)c2cccc(NC=O)c2O)C(=O)O[C@@H](C)[C@@H]1OC(=O)CC(C)C [ANTIMYCIN A]",
    "IC50": "Not Active"
  },
  {
    "COMPOUND": "C[C@@H]1C[C@H]2[C@@H]3CCC4=CC(=O)C=C[C@]4(C)C3=CC[C@]2(C)[C@H]1C(=O)CN1CCN(c2cc(N3CCCC3)nc(N3CCCC3)n2)CC1 [TIRILAZAD]",
    "IC50": "Not Active"
  },
  {
    "COMPOUND": "CO[C@H]1[C@@H](O)[C@H](N)[C@@H](O[C@H]2O[C@H]([C@H](C)N)CC[C@H]2N)[C@H](O)[C@@H]1N(C)C(=O)CN [ASTROMICIN]",
    "IC50": "Not Active"
  }
]

====

PROTOCOL_SUMMARY: DRUGMATRIX: beta-Lactamase enzyme inhibition (substrate: Nitrocefin)
Design: species or system Bacillus cereus
MEASUREMENT_PARAMETERS: Not Active = under 50% inhibition at 10 µM

[
  {
    "COMPOUND": "CN[C@@H]1[C@H](O)[C@H](NC)[C@H]2O[C@@]3(O)C(=O)C[C@@H](C)O[C@H]3O[C@@H]2[C@H]1O",
    "Ki": "Not Active"
  },
  {
    "COMPOUND": "CCC(=O)O[C@H]1[C@H](O[C@@H]2[C@@H](C)[C@H](O[C@H]3C[C@@](C)(OC)[C@@H](O)[C@H](C)O3)[C@@H](C)C(=O)O[C@H](CC)[C@@](C)(O)[C@H](O)[C@@H](C)C(=O)[C@H](C)C[C@@]2(C)O)O[C@H](C)C[C@@H]1N(C)C [ERYTHROMYCIN PROPIONATE]",
    "Ki": "Not Active"
  },
  {
    "COMPOUND": "Cc1cn([C@H]2C[C@H](N=[N+]=[N-])[C@@H](CO)O2)c(=O)[nH]c1=O",
    "Ki": "Not Active"
  },
  {
    "COMPOUND": "CCCCCC[C@H]1C(=O)O[C@H](C)[C@H](NC(=O)c2cccc(NC=O)c2O)C(=O)O[C@@H](C)[C@@H]1OC(=O)CC(C)C [ANTIMYCIN A]",
    "Ki": "Not Active"
  },
  {
    "COMPOUND": "COc1ncnc(NS(=O)(=O)c2ccc(N)cc2)c1OC",
    "Ki": "Not Active"
  },
  {
    "COMPOUND": "CN1C(=O)CN=C(c2ccccc2)c2cc(Cl)ccc21",
    "Ki": "Not Active"
  },
  {
    "COMPOUND": "N=C(N)N/N=C/c1c(Cl)cccc1Cl",
    "Ki": "Not Active"
  },
  {
    "COMPOUND": "Nc1nc(Cl)nc2c1ncn2[C@H]1C[C@H](O)[C@@H](CO)O1",
    "Ki": "Not Active"
  },
  {
    "COMPOUND": "Cc1c(F)c(N2CCNC(C)C2)cc2c1c(=O)c(C(=O)O)cn2C1CC1 (centres undefined)",
    "Ki": "Not Active"
  },
  {
    "COMPOUND": "CC[C@H](C)C(=O)O[C@H]1C[C@H](O)C=C2C=C[C@H](C)[C@H](CC[C@@H](O)C[C@@H](O)CC(=O)O)[C@H]21",
    "Ki": "Not Active"
  },
  {
    "COMPOUND": "CC(C(=O)O)c1ccc(CC2CCCC2=O)cc1 (centres undefined)",
    "Ki": "Not Active"
  },
  {
    "COMPOUND": "C[C@]12CCC(=O)C=C1CC[C@@H]1[C@@H]2[C@@H](O)C[C@@]2(C)[C@H]1CC[C@]2(O)C(=O)CO [HYDROCORTISONE]",
    "Ki": "Not Active"
  },
  {
    "COMPOUND": "C=C(CC)C(=O)c1ccc(OCC(=O)O)c(Cl)c1Cl",
    "Ki": "Not Active"
  },
  {
    "COMPOUND": "NC(=O)N1c2ccccc2C=Cc2ccccc21 [CARBAMAZEPINE]",
    "Ki": "Not Active"
  }
]

====

ASSAYED_TARGET: Alpha-1D adrenergic receptor (Homo sapiens, UniProt P25100); note: in other assays of this panel Not Active means under 50% inhibition at 10 µM
Sequence (P25100 whole entry): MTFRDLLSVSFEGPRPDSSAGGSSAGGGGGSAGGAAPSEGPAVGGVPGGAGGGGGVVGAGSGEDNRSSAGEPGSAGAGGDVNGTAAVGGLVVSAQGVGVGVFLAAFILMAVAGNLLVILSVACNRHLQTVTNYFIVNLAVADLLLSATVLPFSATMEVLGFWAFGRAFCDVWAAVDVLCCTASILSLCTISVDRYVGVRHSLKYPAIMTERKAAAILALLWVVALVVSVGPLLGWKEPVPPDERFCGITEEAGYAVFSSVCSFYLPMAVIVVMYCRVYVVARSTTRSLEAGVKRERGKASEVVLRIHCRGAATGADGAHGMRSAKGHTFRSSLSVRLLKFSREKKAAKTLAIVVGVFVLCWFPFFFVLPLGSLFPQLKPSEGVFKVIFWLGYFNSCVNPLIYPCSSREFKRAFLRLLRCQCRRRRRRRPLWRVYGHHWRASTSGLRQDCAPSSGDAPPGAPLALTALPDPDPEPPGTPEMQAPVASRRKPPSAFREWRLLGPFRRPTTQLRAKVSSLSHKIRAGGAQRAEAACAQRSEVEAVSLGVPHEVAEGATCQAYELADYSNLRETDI
Format: cell membranes, HEK293, Membrane
MEASUREMENT_PARAMETERS: hek293
READOUT_TYPE: IC50

[
  {
    "COMPOUND": "COc1cc(CNC(=O)CCCC/C=C/C(C)C)ccc1O",
    "ASSAYED_TARGET": "Alpha-1D adrenergic receptor (Homo sapiens, UniProt P25100)",
    "MEASURED_RESULT": "Not Active"
  },
  {
    "COMPOUND": "CCc1oc2ccccc2c1C(=O)c1cc(Br)c(O)c(Br)c1",
    "ASSAYED_TARGET": "Alpha-1D adrenergic receptor (Homo sapiens, UniProt P25100)",
    "MEASURED_RESULT": "Not Active"
  },
  {
    "COMPOUND": "N[C@@H](Cc1ccc(F)cc1)C(=O)O",
    "ASSAYED_TARGET": "Alpha-1D adrenergic receptor (Homo sapiens, UniProt P25100)",
    "MEASURED_RESULT": "Not Active"
  },
  {
    "COMPOUND": "O=C(O)Cc1ccc(-c2ccccc2)cc1",
    "ASSAYED_TARGET": "Alpha-1D adrenergic receptor (Homo sapiens, UniProt P25100)",
    "MEASURED_RESULT": "Not Active"
  },
  {
    "COMPOUND": "CN1C(=O)CN=C(c2ccccc2)c2cc(Cl)ccc21",
    "ASSAYED_TARGET": "Alpha-1D adrenergic receptor (Homo sapiens, UniProt P25100)",
    "MEASURED_RESULT": "Not Active"
  },
  {
    "COMPOUND": "COc1ccccc1OCC(O)COC(N)=O (configuration not stated)",
    "ASSAYED_TARGET": "Alpha-1D adrenergic receptor (Homo sapiens, UniProt P25100)",
    "MEASURED_RESULT": "Not Active"
  },
  {
    "COMPOUND": "O=C(/C=C/c1ccc(O)c(O)c1)OCCc1ccccc1",
    "ASSAYED_TARGET": "Alpha-1D adrenergic receptor (Homo sapiens, UniProt P25100)",
    "MEASURED_RESULT": "Not Active"
  }
]

====

ASSAYED_TARGET: Mitogen-activated protein kinase 3 (Homo sapiens)
Sequence (P27361 whole entry): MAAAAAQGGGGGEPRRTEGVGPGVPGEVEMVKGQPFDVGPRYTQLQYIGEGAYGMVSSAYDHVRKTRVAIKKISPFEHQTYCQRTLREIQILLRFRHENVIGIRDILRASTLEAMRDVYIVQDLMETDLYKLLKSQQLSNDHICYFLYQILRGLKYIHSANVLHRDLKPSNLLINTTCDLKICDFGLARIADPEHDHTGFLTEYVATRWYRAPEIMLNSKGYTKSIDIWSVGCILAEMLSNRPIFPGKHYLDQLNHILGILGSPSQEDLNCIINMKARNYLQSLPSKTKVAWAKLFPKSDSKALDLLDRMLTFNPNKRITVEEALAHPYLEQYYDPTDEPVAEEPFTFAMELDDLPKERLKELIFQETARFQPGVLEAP
PROTOCOL_SUMMARY: DRUGMATRIX: Protein Serine/Threonine Kinase, ERK1 enzyme inhibition (substrate: Myelin Basic Protein)
Design: species or system Escherichia coli
MEASUREMENT_PARAMETERS: Not Active = under 50% inhibition at 10 µM; read-out: IC50

[
  {
    "BIOPOLYMER_SEQUENCE": "THIMEROSAL",
    "ASSAYED_TARGET": "Mitogen-activated protein kinase 3 (Homo sapiens)",
    "UNIT_NAME": "nM",
    "IC50": 774
  }
]
